B1: H2-Kb / Ed9 (parent complex)
chain 1: AQSVTQPDARVTVSEGASLQLRCKYSYFGTPYLFWYVQYPRQGLQLLLKYYPGDPVVQGVNGFEAEFSKSNSSFHLRKASVHWSDWAVYFCAVSITGGYKVVFGSGTRLLVSP
chain 2: DSGVVQSPRHIIKEKGGRSVLTCIPISGHSNVVWYQQTLGKELKFLIQHYEKVERDKGFLPSRFSVQQFDDYHSEMNMSALELEDSAMYFCASSPRQSDYTFGSGTRLLVI
chain 3: not shown
chain 4: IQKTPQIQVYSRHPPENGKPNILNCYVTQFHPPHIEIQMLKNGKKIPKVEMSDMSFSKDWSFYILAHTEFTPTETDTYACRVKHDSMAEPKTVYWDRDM
chain 5: SIINFEKL

- Variants of: B1
- Assay notes: % of reporter cells activated (NFAT-GFP), raw; further: test concentration or dose not given here
Note to self: class = bucket of ratio to parent, per low value (below 0.4), medium value (0.4 to below 0.9), high value (0.9 or more)

{"Mutation id": "chain 5 I3N", "Label": "low value"}
{"Mutation id": "chain 5 N4A", "Label": "low value"}
{"Mutation id": "chain 5 E6N", "Label": "low value"}
{"Mutation id": "chain 5 S1W", "Label": "low value"}
{"Mutation id": "chain 5 I3T", "Label": "medium value"}
{"Mutation id": "chain 5 F5Q", "Label": "high value"}
{"Mutation id": "chain 5 E6P", "Label": "low value"}
{"Mutation id": "chain 5 F5N", "Label": "high value"}
{"Mutation id": "chain 5 E6Q", "Label": "medium value"}
{"Mutation id": "chain 5 N4G", "Label": "low value"}
{"Mutation id": "chain 5 F5Y", "Label": "high value"}
{"Mutation id": "chain 5 E6W", "Label": "low value"}
{"Mutation id": "chain 5 S1N", "Label": "low value"}
{"Mutation id": "chain 5 L8G", "Label": "high value"}
{"Mutation id": "chain 5 K7M", "Label": "medium value"}
{"Mutation id": "chain 5 K7R", "Label": "high value"}
{"Mutation id": "chain 5 K7N", "Label": "low value"}
{"Mutation id": "chain 5 F5V", "Label": "high value"}
{"Mutation id": "chain 5 N4E", "Label": "low value"}
{"Mutation id": "chain 5 K7A", "Label": "medium value"}
{"Mutation id": "chain 5 E6G", "Label": "medium value"}
{"Mutation id": "chain 5 L8H", "Label": "high value"}
{"Mutation id": "chain 5 L8R", "Label": "high value"}
{"Mutation id": "chain 5 S1T", "Label": "low value"}
{"Mutation id": "chain 5 L8Y", "Label": "high value"}
{"Mutation id": "chain 5 I2H", "Label": "medium value"}
{"Mutation id": "chain 5 S1D", "Label": "low value"}
{"Mutation id": "chain 5 N4K", "Label": "low value"}
{"Mutation id": "chain 5 L8A", "Label": "high value"}
{"Mutation id": "chain 5 K7Q", "Label": "medium value"}
{"Mutation id": "chain 5 F5K", "Label": "high value"}
{"Mutation id": "chain 5 N4L", "Label": "medium value"}
{"Mutation id": "chain 5 N4Y", "Label": "low value"}
{"Mutation id": "chain 5 E6C", "Label": "low value"}
{"Mutation id": "chain 5 S1P", "Label": "low value"}
{"Mutation id": "chain 5 I3H", "Label": "high value"}
{"Mutation id": "chain 5 E6L", "Label": "low value"}
{"Mutation id": "chain 5 E6T", "Label": "medium value"}
{"Mutation id": "chain 5 E6M", "Label": "medium value"}
{"Mutation id": "chain 5 I2V", "Label": "high value"}
{"Mutation id": "chain 5 I3D", "Label": "medium value"}
{"Mutation id": "chain 5 I3E", "Label": "medium value"}
{"Mutation id": "chain 5 L8D", "Label": "medium value"}

Numbers sourced from paper PMC11480844.
